Reference source: PubChem BioAssay (NCI)

- System: OVCAR-4 ovarian
- Test: NCI-60 one-dose screen, 48 h
- Test Conditions: 10 µM
Compounds without any hit were thinned out: in the full panel of roughly 83,000, 20% have a hit. Activity calls are given as the source filed them. How the source made its calls: active means growth percent below 10; inactive means the rest.
Labels: Yes for active, No for inactive

Molecule: Cc1cc(=O)oc2cc(OCc3cn(CC(O)CO)nn3)ccc12 (stereo unspecified)
Assigned Class: No
--
Molecule: COc1cc(C(=O)n2nc(N)c3c(C)cc(C)nc32)cc(OC)c1OC
Assigned Class: No
--
Molecule: O=C(Cn1ccc(=O)[nH]c1=O)c1ccc([N+](=O)[O-])o1
Assigned Class: No
--
Molecule: COc1ccc(C2CC(c3ccc(-c4ccccc4)cc3)=NN2c2ccc(S(N)(=O)=O)cc2)cc1 (stereo unspecified)
Assigned Class: No
--
Molecule: Cc1ccc2nc3[nH]c(=O)[nH]c(=O)c3c(N)c2c1
Assigned Class: No
--
Molecule: COCCOC(=O)NC(=O)Nc1ccc(/C(=N/O)c2ccc(Cl)cc2)cc1
Assigned Class: No
--
Molecule: O=S(=O)(NC1c2ccccc2Oc2ccccc21)c1ccccc1
Assigned Class: No
--
Molecule: CC(C)CCN(CCCNc1c2c(nc3cc(Cl)ccc13)CCCC2)CCC(C)C
Assigned Class: No
--
Molecule: COc1cc(/C=C/C(=O)c2cc(-c3ccc(C(F)(F)F)cc3)ccc2O)cc(OC)c1OC
Assigned Class: No
--
Molecule: Cc1ccc2c(c1)-c1cc(C)nn1-c1ccc(C#N)cc1O2
Assigned Class: No
--
Molecule: CCCCCCCCCCCCc1ccc(C(=O)/C=C/C(=O)O)cc1
Assigned Class: No
--
Molecule: CC(C)OP(=O)(O)c1ncc(-c2ccc(C(F)(F)F)cc2)c(NC2CCCCCC2)n1
Assigned Class: No
--
Molecule: CCCCOCCOCCOCc1cc2c(cc1Br)OCO2
Assigned Class: No
--
Molecule: C=C1C(=O)O[C@H]2[C@H]1CC/C(COC(=O)OCCCCCOC(=O)OC/C1=C/CC[C@@]3(C)O[C@H]3[C@H]3OC(=O)C(=C)[C@@H]3CC1)=C\CC[C@@]1(C)O[C@@H]21
Assigned Class: Yes
--
Molecule: CC1(C)CNC(=O)N1
Assigned Class: No
--
Molecule: COc1ccc(C2C=C(c3ccc(Cl)c(Cl)c3)N=C3SC(C)=CN32)cc1 (stereo unspecified)
Assigned Class: No
--
Molecule: O=c1ccc2nc(-c3ccccc3)nn(-c3ccccc3)c-2c1
Assigned Class: Yes
--
Molecule: Cc1cc2cc3c(=O)[nH]c(=O)cc-3n(CC(O)C(O)C(O)CO)c2cc1C (stereo unspecified)
Assigned Class: No
--
Molecule: CCc1nn2c(-c3ccccc3)c(-c3cc(OC)c(OC)c(OC)c3)nc2s1
Assigned Class: No
--
Molecule: Cc1cc(Cl)ccc1Nc1nc(C(F)(F)F)ccc1C(=O)N/N=C/c1ccccc1Cl
Assigned Class: No
--
Molecule: CCCCC(=O)N(c1ccc(Nc2c3ccccc3nc3cc([N+](=O)[O-])ccc23)cc1)S(C)(=O)=O
Assigned Class: No

###

Listed next: entries and their corresponding growth.
- Tested on: SR leukemia
- Test: NCI-60 one-dose screen, 48 h (100 = growth as untreated, 0 = no growth, -100 = all killed)
- Test Conditions: 10 µM
The panel holds about 83,000 compounds, 20% with a hit somewhere; the sample as a whole holds those more often.
Observable: growth (%)

Compound Smiles: COc1cc(Cl)cc(-c2nn(-c3cccc(NC(=O)Nc4cccc(C(F)(F)F)c4)c3)cc2-c2ccncc2)c1
Observable: growth
Val: -13.5

Compound Smiles: O=C(O)c1ccc(CNc2ccc(C(=O)CCl)cc2)cc1
Observable: growth
Val: 41.8

Compound Smiles: N#Cc1ncc(-c2cc(F)ccc2F)c(NC2CCCCCC2)n1
Observable: growth
Val: 81.6

Compound Smiles: COc1cc(-c2nc3ccc(C)cc3[nH]2)ccc1OCC(=O)N=Nc1c(O)[nH]c2ccccc12
Observable: growth
Val: -36.7

Compound Smiles: Oc1[nH]c2ccccc2c1/C=c1/cc2c(c(-c3ccc(C(F)(F)F)cc3)n1)=Nc1ccccc1-2
Observable: growth
Val: 4.59
